experiment: Reaction with GSH and half-life in the cytosol
Format: physicochemical
particulars: cytosol (estimated) with 5 mM GSH; physiological GSH concentration of 5 mM
recorded endpoint: half-life

compound	recorded endpoint	result
CC(=O)NC(C(=O)NCCCCC[P+](c1ccccc1)(c1ccccc1)c1ccccc1)C(C)(C)SN=O.CS(=O)(=O)[O-] (stereo not shown)	half-life	~25 s
